# TESTED_ON: NaV1.1 (Homo sapiens (Human))
# TEST_SUMMARY: Sodium Influx Assay (Flux), NaV1.1;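 also: channels co-expressed with human β1 subunit and held open by modulators, cells exposed to compounds for one hour at room temperature, IC50 from percent inhibition of influx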
# Type: cell-based
# CONDITIONS: Trex HEK293 cells, ANG2 dye, inactivated state
Where a name gives a salt, the structure may show the parent alone.
Exercise: for every item that follows, state its recorded IC50.
Give bare numbers, in µM.

Example cases with answers are listed next.
COMPOUND: C[C@H](Nc1cc(F)c(S(=O)(=O)Nc2ccnc(C(F)(F)F)n2)cc1Cl)c1ccccc1Cl
UNIT_DESCRIPTOR: µM
IC50: 10.5

COMPOUND: O=S(=O)(Nc1cscn1)c1cc(Cl)c(NC2(c3ccccc3)CCC2)cc1F
UNIT_DESCRIPTOR: µM
IC50: 8.37

COMPOUND: C[C@H](Nc1ccc(S(=O)(=O)Nc2ccncn2)c(F)c1Cl)c1ccccc1Cl
UNIT_DESCRIPTOR: µM
IC50: 18.2

Alright, here's another compound for you.
# IC50 (compound: COC[C@H]1CCCN1Cc1cccc(F)c1CNc1cc(F)c(S(=O)(=O)Nc2cscn2)c(F)c1 [Example 154, formate] ) is 28.8

----------
# TESTED_ON: NaV1.6 (Homo sapiens (Human))
# TEST_SUMMARY: Sodium Influx Assay (Flux), NaV1.6;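 also: Tetracycline-induced cells, compounds applied for one hour at room temperature with modulators holding channels open, IC50 from percent inhibition of sodium influx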
# Type: cell-based
# CONDITIONS: Trex HEK293 cells, ANG2 dye, inactivated state
pIC50: −log10 of the molar value. Counter-ions that a name gives are not always drawn.
Assign class by pIC50: not lower than 6 means Condition met; lower than 6 means Condition not met.

Completed entries (count: 3):
COMPOUND: Cc1c(NCc2c(F)cccc2CN2CC(F)C2)ccc(S(=O)(=O)Nc2cscn2)c1F
TESTED_ON: NaV1.6 (Homo sapiens (Human))
ASSIGNED_CATEGORY: Condition met
--
COMPOUND: COc1cccc(CN2CCC2)c1CNc1cc(F)c(S(=O)(=O)Nc2cscn2)c(F)c1 [Example 209, 2,2,2-trifluoroacetate]
TESTED_ON: NaV1.6 (Homo sapiens (Human))
ASSIGNED_CATEGORY: Condition met
--
COMPOUND: COCc1ccc(F)c([C@H](C)Nc2cc(F)c(S(=O)(=O)Nc3cscn3)c(F)c2)c1
TESTED_ON: NaV1.6 (Homo sapiens (Human))
ASSIGNED_CATEGORY: Condition not met

Is pIC50 for O=S(=O)(Nc1nccs1)c1cc(Cl)c(N[C@@H]2CCCc3ccccc32)cc1F at or above 6?
Condition not met

Given the entry O=S(=O)(Nc1ccncn1)c1c(F)cc(NCc2ccccc2CN2CCC2)cc1F [Example 311, formate] , answer whether its pIC50 meets or surpasses 6.
Condition met

Quick check, pIC50 >= 6? O=S(=O)(Nc1nccs1)c1cc(Cl)c(N[C@H](c2ccccc2F)C(F)(F)F)cc1F
Condition met

----------
# TESTED_ON: NaV1.5 (Homo sapiens (Human))
# Sequence (Q14524 other isoform, or with tags, fused parts or gaps): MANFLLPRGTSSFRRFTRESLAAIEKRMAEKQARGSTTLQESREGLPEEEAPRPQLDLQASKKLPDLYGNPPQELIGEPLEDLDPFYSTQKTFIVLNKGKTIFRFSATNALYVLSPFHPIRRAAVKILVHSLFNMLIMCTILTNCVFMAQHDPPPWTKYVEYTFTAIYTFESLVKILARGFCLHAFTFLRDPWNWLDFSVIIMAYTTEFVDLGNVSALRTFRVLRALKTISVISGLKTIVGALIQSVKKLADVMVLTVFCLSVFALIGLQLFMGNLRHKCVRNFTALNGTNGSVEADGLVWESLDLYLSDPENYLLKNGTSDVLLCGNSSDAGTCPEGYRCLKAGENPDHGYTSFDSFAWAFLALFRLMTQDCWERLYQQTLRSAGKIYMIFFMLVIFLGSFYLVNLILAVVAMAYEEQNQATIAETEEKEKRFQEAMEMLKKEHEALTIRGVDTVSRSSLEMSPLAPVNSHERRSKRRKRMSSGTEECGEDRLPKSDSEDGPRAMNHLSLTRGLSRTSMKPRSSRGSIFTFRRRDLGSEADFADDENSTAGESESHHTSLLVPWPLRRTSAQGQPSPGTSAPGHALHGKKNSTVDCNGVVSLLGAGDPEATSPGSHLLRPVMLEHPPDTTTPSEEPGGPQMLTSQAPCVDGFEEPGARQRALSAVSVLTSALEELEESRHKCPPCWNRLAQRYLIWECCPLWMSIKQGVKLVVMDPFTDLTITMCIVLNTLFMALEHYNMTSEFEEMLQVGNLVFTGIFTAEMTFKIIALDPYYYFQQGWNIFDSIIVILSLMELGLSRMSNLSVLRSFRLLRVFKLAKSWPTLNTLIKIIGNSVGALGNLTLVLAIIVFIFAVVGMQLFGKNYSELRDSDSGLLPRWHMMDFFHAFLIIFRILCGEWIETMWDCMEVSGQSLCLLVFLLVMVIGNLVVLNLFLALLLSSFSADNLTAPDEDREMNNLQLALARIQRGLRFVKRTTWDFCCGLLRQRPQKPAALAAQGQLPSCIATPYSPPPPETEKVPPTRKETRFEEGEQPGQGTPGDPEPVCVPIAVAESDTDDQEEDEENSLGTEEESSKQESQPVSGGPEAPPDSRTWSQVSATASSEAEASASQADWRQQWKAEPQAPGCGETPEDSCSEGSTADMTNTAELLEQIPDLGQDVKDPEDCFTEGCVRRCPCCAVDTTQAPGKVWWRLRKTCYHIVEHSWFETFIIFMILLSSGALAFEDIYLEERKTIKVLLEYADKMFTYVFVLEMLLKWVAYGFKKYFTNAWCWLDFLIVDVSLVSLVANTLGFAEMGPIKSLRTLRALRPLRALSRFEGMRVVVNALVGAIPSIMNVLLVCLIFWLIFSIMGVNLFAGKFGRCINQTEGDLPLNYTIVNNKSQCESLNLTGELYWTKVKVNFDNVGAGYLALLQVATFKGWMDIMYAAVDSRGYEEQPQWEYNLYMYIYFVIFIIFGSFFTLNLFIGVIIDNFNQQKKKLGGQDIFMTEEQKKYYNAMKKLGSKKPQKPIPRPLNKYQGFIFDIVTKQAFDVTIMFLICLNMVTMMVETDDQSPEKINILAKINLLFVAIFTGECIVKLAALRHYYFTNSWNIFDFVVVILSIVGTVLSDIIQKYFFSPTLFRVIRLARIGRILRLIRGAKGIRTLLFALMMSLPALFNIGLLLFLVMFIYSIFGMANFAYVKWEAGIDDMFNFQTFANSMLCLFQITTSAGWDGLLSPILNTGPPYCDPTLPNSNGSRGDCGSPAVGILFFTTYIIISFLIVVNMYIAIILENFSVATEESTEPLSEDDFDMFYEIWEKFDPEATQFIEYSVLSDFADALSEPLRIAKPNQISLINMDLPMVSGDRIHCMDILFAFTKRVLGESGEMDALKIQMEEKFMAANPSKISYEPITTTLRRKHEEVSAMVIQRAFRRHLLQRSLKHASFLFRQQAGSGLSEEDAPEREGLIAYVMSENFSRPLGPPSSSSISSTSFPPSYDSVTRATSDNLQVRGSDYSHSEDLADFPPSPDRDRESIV
# TEST_SUMMARY: Sodium Influx Assay (Flux), NaV1.5
# CONDITIONS: read-out: Flux NaV1.5 IC50; Trex HEK293 cells, ANG2 dye, inactivated state
OBSERVABLE: pIC50
Give bare numbers, as −log10 of the molar value.

MOLECULE: CN(C)C[C@H](Nc1cc(F)c(S(=O)(=O)Nc2nccs2)cc1Cl)c1ccccc1 [Example 65, 2,2,2-trifluoroacetate]
pIC50: 4.52

MOLECULE: O=S(=O)(Nc1cscn1)c1cc(Cl)c(NC2(c3ccc(F)cc3F)CC2)cc1F [Example 224]
pIC50: 4.52

MOLECULE: C[C@H](Oc1cc(F)c(S(=O)(=O)Nc2cscn2)cc1Cl)c1c(F)cccc1F [Example 120]
pIC50: 5.62

Record C[C@H](Nc1cc(F)c(S(=O)(=O)Nc2cscn2)cc1Cl)c1cc(CC(F)F)ccc1F [Example 227] / NaV1.5 (Homo sapiens (Human)), pIC50 recorded as 5.07

From: patent US11174268B2
